Data provenance is patent US20250250357A1.

Below, each entry is listed alongside its reported OD450.
Molecular target: T1, human MSLN-R1-his protein (human, UniProt Q13421 296-390)
T1 construct: Region 1 of human mesothelin, made in HEK293E cells, His-tagged; also called human MSLN-R1 protein; hMSLN-R1-his; not shown: His tag
T1 chain: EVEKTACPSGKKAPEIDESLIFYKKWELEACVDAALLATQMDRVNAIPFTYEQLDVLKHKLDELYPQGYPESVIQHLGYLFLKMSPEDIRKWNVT
Assay: ELISA on coated MSLN-R1; antibody 0.001 nM
Please respond with the number in OD450 and leave the unit unwritten.

// known answers, use as guide
S009-F8-13.8 (antibody, human IgG1, kappa, V domains shown) VH: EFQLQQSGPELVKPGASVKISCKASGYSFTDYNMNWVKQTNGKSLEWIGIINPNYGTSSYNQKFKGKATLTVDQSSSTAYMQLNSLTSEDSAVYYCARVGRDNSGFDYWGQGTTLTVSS VL: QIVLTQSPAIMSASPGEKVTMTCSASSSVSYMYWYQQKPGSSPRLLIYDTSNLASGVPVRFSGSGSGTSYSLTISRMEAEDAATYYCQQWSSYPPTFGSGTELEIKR :: 0.08
S009-F8-29.1 (antibody, human IgG1, kappa, V domains shown) VH: QVQLQQSGAELARPGASVKMSCKASGYTFISYTMHWVKQRPGQGLEWIGYINPSSGYTKYNQKFKDKATLTADKSSSTAYMQLNSLTSEDSAVYYCARYYSNPDYYAMDYWGQGTSVTVSS VL: QIVLTQSPAIMSASPGEKVTITCSASSSVSYMHWFQQKPGTSPKLWIYSTSNLASGVPARFSGSGSGTSYSLTISRMEAEDAATYYCQQRSSYPLTFGGGTKLELKR :: 0.04

Okay, next one:
## Task Assign OD450 to the following record: S009-F8-19.21 (antibody, human IgG1, kappa, V domains shown) VH: EFQLQQSGPELVKPGASVKISCKTSGYSFTDYNMNWVKQSNGKSLEWIGVINPNYGTTGYNQKFKGKATLTVDQSSSTAYMQLNSLTSEDSAVYYCARGGYDGEAMDYWGHGTSVTVSS VL: QIVLTQSPAIMSASPGEKVTMTCSASSSVNYMHWYQQKSGTSPKRWIYDTSKLASGVPARFSGSGSGTSYSLTISSMEAEDAATYYCQQWSSYPPTFGGGTKLEIKR
## Result 0.1
